Origin of measurements: the EternaBench riboswitch data

# System: MS2 coat protein
# TEST_SUMMARY: apparent Kd, MS2 coat protein; higher = weaker binding; RNA-MaP array; FMN 200 µM where present
# MEASUREMENT_SETUP: ligand present: flavin mononucleotide; designed as: ON switch for flavin mononucleotide
PROPERTY_NAME: apparent Kd (µM)

INSERT INTO measurements (sequence_chain, property_name, unit_info, quantitative_readout) VALUES
  ('ACCACGUCAGCGAUAUGAUCGAGAGAUCAUGUCGCUGAAUUUAGAAGGACAUGAGGAUCACCCAUGUAGGAUAUGGGUCGUGGA', 'apparent Kd', 'µM', 0.0118),
  ('CGAAGUCCGUAGAAGGGUGACAUGAGGAUCACCCAUGUGCGAGCGGAUGGAGUCAGCGGCUCGCCACAGGAUAUACGGAGCACG', 'apparent Kd', 'µM', 0.0653),
  ('CCACGUCACAUGAACAUGAGGAUCACCCAUGUAACUAGACAUGAGGAUAUGGAUCCUAAUUGGAUCCAGAAGGCAUGGACGUGG', 'apparent Kd', 'µM', 0.0292),
  ('UUAUUACAUGAGGAUCACCCAUGUUUAGUGGUGACAGGAUAUACGAAAAAAAAAAAAAAAGUAGAAGGGUCUUAUU', 'apparent Kd', 'µM', 0.742),
  ('GAGAGAGGAUGAGGAUAUGCAGUAAUAAUGAUAGCAGAAGGCAUAGACAUGAGGAUCACCCAUGUGGGAAUAAUCCAGAGAGAG', 'apparent Kd', 'µM', 0.272),
  ('UGGAUGGUAUGAGGAUAUGCGCGCGACACGCGCGCAGAAGGCAUGUCAAUAGACAUGAGGAUCACCCAUGUAUUAUCCAUCCAA', 'apparent Kd', 'µM', 0.0148),
  ('GUAGCACAUGAUUUACAUGAGGAUCACCCAUGUAACAUGGGUAAGGAUAUUGAUGUGAAGUUAAUCAAGAAGGUACUAUGCUAC', 'apparent Kd', 'µM', 0.00635);

* * *

Measured apparent Kd of individual entries
# System: MS2 coat protein
# TEST_SUMMARY: apparent Kd, MS2 coat protein; higher = weaker binding; RNA-MaP array; theophylline 2 mM where present
# MEASUREMENT_SETUP: ligand present: theophylline; designed as: OFF switch for theophylline
PROPERTY_NAME: apparent Kd (nM)

INSERT INTO results (sequence_chain, quantitative_readout) VALUES
  ('AUUAUCAUGGUCAUAUAUAUAUCGUCAGAUACCAGACUAGAUAUAGUCCCUUGGCAGCUGUUACAUGAGGAUCACCCAUGUUAUA', 47.8),
  ('GAGGUCCUGAGAGAUACCAGUGAGGCCACAUGAGGAUCACCCAUGUCCCUCACUCCGGCCCACCCUUGGCAGCUCGGAAGGUAAA', 119),
  ('ACCUCACUCUCUGAUACCAGCUAAUAACAUGAGGAUCACCCAUGUCAGACUUGUAUUGAUAGCCCUUGGCAGCAGAGGUAACUGC', 11.3),
  ('GAUGAACUAUUUGAUACCAGACUACAUGAGGAUCACCCAUGUGUGUUAAUUUUUCAGUCAGUCCCUUGGCAGCAAAUAGUUUAUC', 146),
  ('AAAUAAAUAACUGAUACCAGUCGGACAACAUGAGGAUCACCCAUGUUCACCCAUGUUGAGGACCCUUGGCAGCAGAAAUAUAAAA', 185),
  ('GGUUUCGCGGGCGAUACCAGCUUGAUCGUACUGGCCUGGUACAUGAGGAUCACCCAUGUAAGCCCUUGGCAGCGCGCGCGAGACC', 24.7),
  ('UAGGUGAUCUUCAACGGAAAACGUUGUGAUACCAGCCAACAAUACGGCCCUUGGCAGCACAUGAGGAUCACCCAUGUGUACACCG', 193),
  ('ACGAUGCGACAUGAGGAUCACCCAUGUGAUACCAGCCUGGAAACAGGCCCUUGGCAGCACAAAUACUCCAGAAACGCAUCGAAUA', 439),
  ('AGCGACAUGCGUGAUACCAGCUACAUGAGGAUCACCCAUGUACGUAGGAAACUACUGUGUAGCCCUUGGCAGCAUAGUGCAUGUC', 57.1),
  ('AAACGUUGCUGCGAUACCAGACAUGAGGAUCACCCAUGUACCAAGGUACGAAUAUAACAUGUCCCUUGGCAGCGCAGCAACGAAA', 279),
  ('AUCAGUAGAACUGAUACCAGUCAAAGGCUUUGACCUCAUAACAUGAGGAUCACCCAUGUUGACCCUUGGCAGCAGUAGGCAAGGG', 35.1),
  ('GAUGAACUAUUUGAUACCAGACAACAUGAGGAUCACCCAUGUGCGCGUCGUCCUCUGCCUGUCCCUUGGCAGCGGAUAGUUUAUC', 89.9),
  ('CAUUAAGUAACUGAUACCAGUGUACUGACAUGAGGAUCACCCAUGUUGGGUUUUGUUGUACACCCUUGGCAGCAGAAUCUUAAUG', 95.5),
  ('GAGCUGAUGUAGAGAAUAAAUAUAAGAGAUACCAGUACAGAAAUGUACCCUUGGCAGCUCAACUUUACAUGAGGAUCACCCAUGU', 18.8);

* * *

# Test system: MS2 coat protein
# TEST_SUMMARY: apparent Kd, MS2 coat protein; higher = weaker binding; RNA-MaP array; tryptophan 2.4 mM where present
# MEASUREMENT_SETUP: designed as: OFF switch for tryptophan; no ligand
Measured apparent Kd of individual entries
PROPERTY_NAME: apparent Kd

INSERT INTO measurements (sequence_chain, result) VALUES
  ('GGAUAGGACACGGCCGCCACUGCCUAGGAUACUAGCAACAUUUGGGUACAUGAGGAUCACCCAUGUAGGACCGGGUGUCCUAUCG', '0.0492 µM'),
  ('GAUAUGGAAACAUGUCAGAUCCUUACCGGUCGAGGACCGGUACGGCCGCCACUCGGAAAUAUUGUACAUGAGGAUCACCCAUGUA', '0.0137 µM'),
  ('GUCCAAAGGUCGGCCGCCACUGUAGAGUGUGUUCUUUCACAUGAGGAUCACCCAUGUUGUUAUUAUAGGACCGGGAUUGUAGGAC', '0.0204 µM'),
  ('GGAUCAGGAUCGGCCGCCACUGAUAGUGAUCCAACGACAUGAGGAUCACCCAUGUACAUUUUAAUCAGGACCGGGAUCAAGUUCC', '0.129 µM');

* * *

# System: MS2 coat protein
# TEST_SUMMARY: apparent Kd, MS2 coat protein; higher = weaker binding; RNA-MaP array
# MEASUREMENT_SETUP: designed as: OFF switch for flavin mononucleotide; no ligand
Measured apparent Kd of individual entries
PROPERTY_NAME: apparent Kd (nM)

INSERT INTO results (sequence_chain, unit_info, quantitative_readout) VALUES
  ('GAAGUCGCCGAGAAGGGAGCGAAACUCUCUAUCACAUGAGGAUCACCCAUGUAGUUCUCGUGAGCUCAGGAUAUCGUCGAACGC', 'nM', 14.5),
  ('GUACAGGAAGGAUAUACCAGGUAAGUUAAGUUUUCACAUUGACAUGAGGAUCACCCAUGUAGAAGGUCCCUAUA', 'nM', 36.7),
  ('GAGUCGCGAGGAUAUGGAAUGGACUACAUGAGGAUCACCCAUGUCCUUUCCCUUGUUUGUCCAGAAGGCGCCAUCC', 'nM', 27),
  ('CUACGCAUAGGAUAUGCCUACUGGGACAUGAGGAUCACCCAUGUGUUAUUAUCAGCUCCGGCAGAAGGAUGGUACU', 'nM', 29.1),
  ('GGGCGCCGAGGAUAUCACAGGAGUAACAUGAGGAUCACCCAUGUAUCAGUGGGCGUAAUAUGAGAAGGCGGUGGUU', 'nM', 85.5),
  ('GCCAUAAAAGAGAAGGGCGGCCACCUACGAACCGCAGGAUAUCUUUGCUUUCCUCGGACAUGAGGAUCACCCAUGUGGCCAAUA', 'nM', 97.3),
  ('CACAGGUCAGUAGGAUAUGCUACAUGAGGAUCACCCAUGUGGUGGUAUAUGCGUCUAGGCGCAAAGCAGAAGGACUUCCAGGUG', 'nM', 42);

* * *

# Tested on: MS2 coat protein
# TEST_SUMMARY: apparent Kd, MS2 coat protein; higher = weaker binding; RNA-MaP array; FMN 200 µM where present
# MEASUREMENT_SETUP: designed as: ON switch for flavin mononucleotide; no ligand
PROPERTY_NAME: apparent Kd (µM)

INSERT INTO measurements (sequence_chain, property_name, unit_info, quantitative_readout) VALUES
  ('UUUCAGCUCACAUGAGGAUCACCCAUGUCGGUUCGCCCGGACAGAAGGCACCCAUGACAAUGCGGUGAGGAUAUGUCAGCAAGG', 'apparent Kd', 'µM', 0.193),
  ('UAUCAUUACACGAAGGAUAUCGAUAAUUGAACAUGAGGAUCACCCAUGUGAUAUAUUUUACAGUUCGAGAAGGUCGAGGGUGAAG', 'apparent Kd', 'µM', 0.0356),
  ('GUAACGCUUGACAUGAGGAUCACCCAUGUUAGAUUGUUAUGUCAGGAUAUAGUCUAGAAACUAGACUAGAAGGGAUAUGUUACU', 'apparent Kd', 'µM', 0.0696),
  ('UUGAAGCUCACAGGAUAUCAGUAUGCACGAUCUAGCGCAUUAAUGAACUGCUGAGAAGGGUGAGACAUGAGGAUCACCCAUGUA', 'apparent Kd', 'µM', 0.593),
  ('AUUAAACAUGAGGAUCACCCAUGUCAACAAAGUCGAGGAUAUGGGCAUAUUAUCUAAUAACCAGAAGGCGAAUAAU', 'apparent Kd', 'µM', 0.182),
  ('GCGAUUAAGUAGAAGGUACGAUAUAAAUCAAUGUAAGGAUAUACUGACAUGAGGAUCACCCAUGUUUAAUUUGUUUACUGUCGC', 'apparent Kd', 'µM', 0.00742),
  ('CCACGUCACAUGAACAUGAGGAUCACCCAUGUAACUAGACAUGAGGAUAUGGAUCCUAAUUGGAUCCAGAAGGCAUGGACGUGG', 'apparent Kd', 'µM', 0.168),
  ('CGAAGUCCGUAGAAGGGUGACAUGAGGAUCACCCAUGUGCGAGCGGAUGGAGUCAGCGGCUCGCCACAGGAUAUACGGAGCACG', 'apparent Kd', 'µM', 0.0306),
  ('GUAGCUAUCGGAGGAUAUCCUUAGCGGAAACGCACAUGAGGAUCACCCAUGUAAAUAAAUAAUUGGGAGAAGGCCGAUAGCUAC', 'apparent Kd', 'µM', 0.107),
  ('GUGGCCUAGGCACAGGAUAUGUUUCUCGUAACAUGAGGAUCACCCAUGUGCCUUUGAGAUUUUAUGCAGAAGGGUGCACGCCACG', 'apparent Kd', 'µM', 0.488),
  ('GCCAUCGCAUGAGGAUAUGCUCGGGUUUCCCGAGCAGAAGGCAUGUCAUAAGACAUGAGGAUCACCCAUGUAGUUAAGAUGGCA', 'apparent Kd', 'µM', 0.813),
  ('CCCAGUGCAUCAGGAUAUCCUCACAUGAGGAUCACCCAUGUAAUGAGCCGAGGAGAAGGGAUGUGAACUCCAGUUACCGAUCGU', 'apparent Kd', 'µM', 0.267),
  ('CUCAUUAACAUGAGGAUCACCCAUGUUGGCCAGUCUCACACCAGAAGGCCCGUUGAGCACAGCAGGGAGGAUAUGGGUGACAUA', 'apparent Kd', 'µM', 0.309),
  ('GCACAUGGCAUAGGAUAUAGAACUUUACUUUAUAUAGGUAGUUACACUUAACUAGAAGGAUGUUACAUGAGGAUCACCCAUGUU', 'apparent Kd', 'µM', 0.0254);
